B1: F1*; the commonest letter at each place (parent)
chain: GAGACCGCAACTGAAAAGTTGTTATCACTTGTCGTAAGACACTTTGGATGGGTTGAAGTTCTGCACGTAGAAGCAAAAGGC

- Variants of: B1
- PROTOCOL_SUMMARY: fraction ligated after 30 min (ligated reads / total reads); higher = more ligase activity
- CONDITIONS_USED: with F1*sub RNA substrate (template-directed ligation), 42 °C
Mark rule not met for fraction ligated values under 0.8, and rule met for everything at or above.

Request: Please indicate if the recorded fraction ligated for C28T A56G meets or exceeds 0.8.
Response: rule not met
